- system.name: Rho kinase (fused protein of bovine Rho kinase catalyst region and glutathione S-transferase) (Bos taurus, UniProt Q28021)
- Sequence (Q28021 92-354 limits assumed): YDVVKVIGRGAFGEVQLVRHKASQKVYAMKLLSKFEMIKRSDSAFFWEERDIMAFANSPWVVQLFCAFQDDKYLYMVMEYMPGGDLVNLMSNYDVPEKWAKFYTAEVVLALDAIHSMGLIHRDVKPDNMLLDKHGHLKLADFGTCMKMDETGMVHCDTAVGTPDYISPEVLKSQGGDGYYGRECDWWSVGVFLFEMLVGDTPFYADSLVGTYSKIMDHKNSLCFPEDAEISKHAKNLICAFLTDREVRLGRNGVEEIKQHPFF
- method: Rho kinase inhibitory activity (phosphorylation of S6 231–239 substrate, γ32P-ATP)
- Type: biochemical
- condition.context: concentration inhibiting substrate phosphorylation by 50%
Listed here: items and their measured IC50.

molecule: O=C(COc1c(Cl)cccc1Cl)Nc1ccncc1
IC50 / nM: 910

molecule: O=[N+]([O-])c1cccc(CN2CCC(Nc3ccc4[nH]ncc4c3)C2)c1 (centres unmarked)
IC50 / nM: 5

molecule: Clc1ccccc1CN1CCC(Nc2ccc3[nH]ncc3c2)C1 (centres unmarked)
IC50 / nM: 45

molecule: O=C(NCc1c(Cl)ccc(Cl)c1Cl)Nc1ccc2c(c1)C(=O)NC2=O
IC50 / nM: 300

molecule: O=C(Cc1ccc([N+](=O)[O-])cc1)Nc1ccc2[nH]ncc2c1
IC50 / nM: 513

molecule: O=C(Nc1ccc2[nH]ncc2c1)C1CCCCC1
IC50 / nM: 470

molecule: O=C(NCc1cccc2ccccc12)Nc1ccc2[nH]ncc2c1
IC50 / nM: 470

molecule: CCN1CCC(Nc2ccc3[nH]ncc3c2)CC1
IC50 / nM: 747

molecule: O=C(Nc1ccncc1)NC1CCCCC1
IC50 / nM: 7260

molecule: O=C(NCC1CCCCC1)Nc1ccncc1
IC50 / nM: 6030

molecule: c1ccc(CNC2CCC(Nc3ccc4[nH]ncc4c3)CC2)cc1 (mixture of isomers)
IC50 / nM: 90

molecule: O=C(NCc1ccccc1Cl)Nc1ccc2[nH]ncc2c1
IC50 / nM: 240

molecule: Clc1cccc(CN2CCCC(Nc3ccc4[nH]ncc4c3)C2)c1 (centres unmarked)
IC50 / nM: 19

molecule: O=C(Nc1ccc2[nH]ncc2c1)Nc1c(Cl)cccc1Cl
IC50 / nM: 980

molecule: Brc1cccc(CN2CCC(Nc3ccc4[nH]ncc4c3)CC2)c1
IC50 / nM: 124

molecule: O=C(NCc1ccccc1)Nc1ccc2[nH]ncc2c1
IC50 / nM: 260

molecule: O=C(NCc1cccc([N+](=O)[O-])c1)Nc1ccncc1
IC50 / nM: 1770

molecule: COc1cccc(CN2CCC(Nc3ccc4[nH]ncc4c3)CC2)c1
IC50 / nM: 383

molecule: Clc1cccc(CN2CCC(Nc3ccc4[nH]ncc4c3)CC2)c1
IC50 / nM: 285

molecule: Fc1ccc(CN2CCC(Nc3ccc4[nH]ncc4c3)C2)cc1 (centres unmarked)
IC50 / nM: 84

molecule: O=C(NCc1ccccc1)Nc1ccc2c(c1)C(=O)NC2=O
IC50 / nM: 410

molecule: c1ccc(CCN2CCC(Nc3ccc4[nH]ncc4c3)CC2)cc1
IC50 / nM: 457

molecule: O=C(NCc1c(Cl)cccc1Cl)Nc1ccc2c(c1)C(=O)NC2=O
IC50 / nM: 110

molecule: O=C(Nc1cccc([N+](=O)[O-])c1)Nc1ccc2c(c1)C(=O)NC2=O
IC50 / nM: 10400

molecule: O=C(NCc1c(F)cccc1F)Nc1ccc2[nH]ncc2c1
IC50 / nM: 85

molecule: O=C(Nc1ccncc1)Nc1c(F)cccc1F
IC50 / nM: 2000

molecule: O=C(COc1c(Cl)cc(F)cc1Cl)Nc1ccc2[nH]ncc2c1
IC50 / nM: 460

molecule: Nc1cccc(CNC(=O)Nc2ccc3c(c2)C(=O)NC3=O)c1
IC50 / nM: 310

molecule: c1ccc(CNCCNc2ccc3[nH]ncc3c2)cc1
IC50 / nM: 163

molecule: O=C(NCc1ccc(Cl)cc1Cl)Nc1ccc2[nH]ncc2c1
IC50 / nM: 220

molecule: Fc1ccc(CN2CCC(Nc3ccc4[nH]ncc4c3)CC2)cc1
IC50 / nM: 478

molecule: CC(NC(=O)Nc1ccc2c(c1)C(=O)NC2=O)c1ccc(Br)cc1 (centres unmarked)
IC50 / nM: 110

molecule: O=C(NCc1ccccc1Cl)Nc1ccc2c(c1)C(=O)NC2=O
IC50 / nM: 290

molecule: CC(=O)n1ncc2cc(NC3CCN(Cc4ccccc4)CC3)ccc21
IC50 / nM: 4

molecule: O=C(Nc1ccncc1)Nc1c(Cl)cc(Cl)cc1Cl
IC50 / nM: 200

molecule: O=C(Nc1ccc2c(c1)C(=O)NC2=O)Nc1ccc2[nH]ccc2c1
IC50 / nM: 400

molecule: O=C(NCc1cccc2ccccc12)Nc1ccc2c(c1)C(=O)NC2=O
IC50 / nM: 180

molecule: O=C(COc1c(Cl)cc(F)cc1Cl)Nc1ncnc2[nH]ncc12
IC50 / nM: 1370
